Numbers sourced from patent US20160053014A1.

Target: T1, human CXCR5 (human, UniProt P32302 1-372)
T1 construct: whole, on cells; also called hu-CHO; CHO-CXCR5 cells
T1 sequence (looked up): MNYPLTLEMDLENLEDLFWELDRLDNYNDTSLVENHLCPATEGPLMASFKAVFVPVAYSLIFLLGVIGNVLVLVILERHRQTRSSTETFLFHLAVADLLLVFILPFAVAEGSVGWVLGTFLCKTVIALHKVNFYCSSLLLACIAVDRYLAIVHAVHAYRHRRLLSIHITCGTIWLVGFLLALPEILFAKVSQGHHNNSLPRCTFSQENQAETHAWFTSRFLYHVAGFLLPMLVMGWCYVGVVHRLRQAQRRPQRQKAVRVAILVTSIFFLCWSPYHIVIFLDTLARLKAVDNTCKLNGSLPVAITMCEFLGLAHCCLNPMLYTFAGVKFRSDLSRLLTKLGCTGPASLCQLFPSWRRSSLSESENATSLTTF
Assay: flow cytometry on CHO-CXCR5 cells, IgG titration
Entries annotated with measured EC50
Field format: number, assumed nM, no unit text.

INSERT INTO results (binder, observation_type, unit_abbreviation, assay_result) VALUES
  ('11D3 (antibody, V domains shown, tested as human IgG) VH: QVQLVQSGGGVVQPGRSLRLSCAASGFTFSNFGMHWVRQAPGKGLEWVAVISYDGSNKYYADSVKGRFTISRDNSKNTLYLQMNSLRAEDTAVYYCARNTVTYHDVWGQGTTVTVSS VL: QPVLTQPASVSGSPGQSITISCTGTSSDVGGYNYVSWYQQHPGKAPKLMINDVSNRPSGVSSRFSGSKSGNTASLTISGLQAEDEADYYCSSYTSSSTLVFGGGTKLTVL', 'EC50', 'nM', 2.7),
  ('13E10 (antibody, V domains shown, tested as human IgG) VH: EVQLVQSGAEVKKPGASLKISCRASGYTFTRNYIHWVRQAPGQGLEWLGIINPNGGSTRYSQKFQGRVTMTRDTSTRTVYMELSSLRSEDTAVYYCAREAPKYCSGSSCYSGGVDYWGQGTLVTVSS VL: QPVLTQPLSASGTPGQRVTISCSGSSSNIGSNYVYWYQQLPGTAPKLLIYRNYQRPSGVPDRFSGSTSGTSASLAISGLRSEDEADYHCAAWDGSMRGWVFGGGTKLTVL', 'EC50', 'nM', 0.7),
  ('PC12 (antibody, V domains shown, tested as human IgG) VH: EVQLLESGAEVKKPGASVKVSCKASGYTFTSYYVHWVRQAPGQGLEWMGIINPSGGTTSYAQKFQGRVTMTRDTSTSTVYMELSSLRSEDTAVYYCVRDRRVVAATTPSAFDVWGQGTMVTVSS VL: QSVVTQPPSVSAAPGQKVTISCSGSSSNIGNNYVSWYQQLPGTAPKLLIYDNNKRPSGIPDRFSGSKSGTSATLGIVGLQTGDEADYYCATWDGSLSTFLFGPGTKLTVL', 'EC50', 'nM', 4.2);

From here, focus on the item given below.
Recorded EC50 for 14D7 (antibody, V domains shown, tested as human IgG) VH: QVQLVQSGGGVVQPGRSLRLSCAASGFTFSSYGMHWVRQAPGKGLEWVAVISYDGSNKYYADSVKGRFTISRDNSKNTLYLQMNSLRAEDTAVYYCAKWGRRGAPDYWGQGTLVTVSS VL: ETTLTQSPGTLSVSPGERATLSCRASQSVSSNLAWYQQKPGQAPRLLIYGASTRATGIPARFSGSGSGTDFTLTISSLEPEDFAVYYCQQRNNWPLTFGGGTKVEIK , please?
4
